# IC50 per record follows
- tested system: UniProtKB P72194
- assay protocol: biochemical
- Type: biochemical
- settings: IC50 (nM) Kgp, Table 4
Your answer is read as nM, so omit the unit and give the number.

                                   compound  result_value
0  NCCCCC(NC(=O)C1CCCC1)C(=O)Cn1ccc(=O)nc1 (centres unmarked) [Compound 40a]          30.3
1  NCCCCC(NC(=O)c1ccncc1)C(=O)COc1c(F)ccc(F)c1F (centres unmarked) [Compound 52a]          0.06
2  COC(C)(C)C(=O)NC(CCCCN)C(=O)COc1c(F)cccc1F (centres unmarked) [Compound 48a]          0.07

Notebook entry, UniProtKB P72194 assay: IC50 of NCCCCC(NC(=O)C1CCCC1)C(=O)COc1ccon1 (centres unmarked) [Compound 49a] = ?
0.23

Which IC50 is reported with UniProtKB P72194 for this entry: NCCCCC(NC(=O)c1cccc(F)n1)C(=O)COc1c(F)cccc1F (centres unmarked) [Compound 28a] ?
0.34

Enter reported IC50 observed with UniProtKB P72194 for NCCCCC(NC(=O)c1cccc(OCCF)c1)C(=O)COc1c(F)cccc1F (centres unmarked) [Compound 27a]
0.27
